B1: HDAC6 (parent)
chain: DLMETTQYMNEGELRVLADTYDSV

# Variants of: B1
# METHOD SUMMARY: protein stability index of a GFP-peptide fusion (GPS, HEK-293T) (PSI 1-6); higher = more stable;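 note: lentivirally expressed fusions sorted by FACS into six bins by GFP to DsRed ratio, PSI derived from sequencing read proportions per bin multiplied by bin number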
# ASSAY SETUP: c terminus: a fixed tail appended

>  <POLYMER SEQUENCE>
DLMETTQGMNEGELRVLADTYDSV [Y8G]

>  <protein stability index>
4.5

$$$$
>  <POLYMER SEQUENCE>
DLMETTQYMNEGELRVLADTYCSV [D22C]

>  <protein stability index>
2.18

$$$$
>  <POLYMER SEQUENCE>
DLMETTQYMNEGHLRVLADTYDSV [E13H]

>  <protein stability index>
3.2

$$$$
>  <POLYMER SEQUENCE>
DLMETTQYMNEGELRVLADSYDSV [T20S]

>  <protein stability index>
2.13

$$$$
>  <POLYMER SEQUENCE>
DLMETTQYMNEGEHRVLADTYDSV [L14H]

>  <protein stability index>
2.29

$$$$
>  <POLYMER SEQUENCE>
DLMETTQWMNEGELRVLADTYDSV [Y8W]

>  <protein stability index>
1.89

$$$$
>  <POLYMER SEQUENCE>
DQMETTQYMNEGELRVLADTYDSV [L2Q]

>  <protein stability index>
4.68

$$$$
>  <POLYMER SEQUENCE>
DLMETTQYMNNGELRVLADTYDSV [E11N]

>  <protein stability index>
3.13

$$$$
>  <POLYMER SEQUENCE>
DLMETTQYMNEGELRVLADTYDQV [S23Q]

>  <protein stability index>
1.24

$$$$
>  <POLYMER SEQUENCE>
DLMETTQYMNEGELRVLADQYDSV [T20Q]

>  <protein stability index>
2.58

$$$$
>  <POLYMER SEQUENCE>
DLCETTQYMNEGELRVLADTYDSV [M3C]

>  <protein stability index>
1.69

$$$$
>  <POLYMER SEQUENCE>
DLMETTQYMNQGELRVLADTYDSV [E11Q]

>  <protein stability index>
2.6

$$$$
>  <POLYMER SEQUENCE>
DLMETTQYFNEGELRVLADTYDSV [M9F]

>  <protein stability index>
3.44

$$$$
>  <POLYMER SEQUENCE>
DLMETTQYMNEGELRVLADTYDPV [S23P]

>  <protein stability index>
1.46

$$$$
>  <POLYMER SEQUENCE>
DLMEYTQYMNEGELRVLADTYDSV [T5Y]

>  <protein stability index>
1.38

$$$$
>  <POLYMER SEQUENCE>
DLMETTQYMNEGALRVLADTYDSV [E13A]

>  <protein stability index>
3.38

$$$$
>  <POLYMER SEQUENCE>
DLMETTQYMNEGELRVLAHTYDSV [D19H]

>  <protein stability index>
2.42

$$$$
>  <POLYMER SEQUENCE>
DLMETTPYMNEGELRVLADTYDSV [Q7P]

>  <protein stability index>
3.69

$$$$
>  <POLYMER SEQUENCE>
DLMETTQYMHEGELRVLADTYDSV [N10H]

>  <protein stability index>
2.57

$$$$
>  <POLYMER SEQUENCE>
KLMETTQYMNEGELRVLADTYDSV [D1K]

>  <protein stability index>
2.28

$$$$
>  <POLYMER SEQUENCE>
DLMETTQYMNESELRVLADTYDSV [G12S]

>  <protein stability index>
3.58

$$$$
>  <POLYMER SEQUENCE>
DLMETTQYMNEGELGVLADTYDSV [R15G]

>  <protein stability index>
3.24

$$$$
>  <POLYMER SEQUENCE>
DLMETTKYMNEGELRVLADTYDSV [Q7K]

>  <protein stability index>
2.12

$$$$
>  <POLYMER SEQUENCE>
DLMETTQYMNEGELRVLADNYDSV [T20N]

>  <protein stability index>
2.21

$$$$
>  <POLYMER SEQUENCE>
DLKETTQYMNEGELRVLADTYDSV [M3K]

>  <protein stability index>
4.13

$$$$
>  <POLYMER SEQUENCE>
DLMETTQYMNEGELRVFADTYDSV [L17F]

>  <protein stability index>
2.05

$$$$
>  <POLYMER SEQUENCE>
DLMETTQYMNEGELRVLADTYSSV [D22S]

>  <protein stability index>
1.55

$$$$
>  <POLYMER SEQUENCE>
DEMETTQYMNEGELRVLADTYDSV [L2E]

>  <protein stability index>
4.57

$$$$
>  <POLYMER SEQUENCE>
DLMETTQYMNPGELRVLADTYDSV [E11P]

>  <protein stability index>
3.65

$$$$
>  <POLYMER SEQUENCE>
DLMETTQYMNEGEQRVLADTYDSV [L14Q]

>  <protein stability index>
2.28

$$$$
>  <POLYMER SEQUENCE>
DLMETTQYMNEGEGRVLADTYDSV [L14G]

>  <protein stability index>
2.92

$$$$
>  <POLYMER SEQUENCE>
DGMETTQYMNEGELRVLADTYDSV [L2G]

>  <protein stability index>
3.22

$$$$
>  <POLYMER SEQUENCE>
DLMETTQYMNEGELRVLDDTYDSV [A18D]

>  <protein stability index>
2.82

$$$$
>  <POLYMER SEQUENCE>
LLMETTQYMNEGELRVLADTYDSV [D1L]

>  <protein stability index>
2.05

$$$$
>  <POLYMER SEQUENCE>
DLMETTQYMAEGELRVLADTYDSV [N10A]

>  <protein stability index>
1.98

$$$$
>  <POLYMER SEQUENCE>
DLMETTQYMNEGELRVLADTYDSC [V24C]

>  <protein stability index>
1.42

$$$$
>  <POLYMER SEQUENCE>
QLMETTQYMNEGELRVLADTYDSV [D1Q]

>  <protein stability index>
2.25

$$$$
>  <POLYMER SEQUENCE>
DLMETHQYMNEGELRVLADTYDSV [T6H]

>  <protein stability index>
2.29

$$$$
>  <POLYMER SEQUENCE>
DLMETTQYMNEGQLRVLADTYDSV [E13Q]

>  <protein stability index>
4.13

$$$$
>  <POLYMER SEQUENCE>
DLMETTQYMNIGELRVLADTYDSV [E11I]

>  <protein stability index>
1.86

$$$$
>  <POLYMER SEQUENCE>
DLMETTQYMNEGELRVLADTDDSV [Y21D]

>  <protein stability index>
3.31

$$$$
>  <POLYMER SEQUENCE>
DLMEGTQYMNEGELRVLADTYDSV [T5G]

>  <protein stability index>
3.72

$$$$
>  <POLYMER SEQUENCE>
DLMETTQYMNEGELYVLADTYDSV [R15Y]

>  <protein stability index>
2.39

$$$$
>  <POLYMER SEQUENCE>
DLMETTQYMNEGELRVDADTYDSV [L17D]

>  <protein stability index>
5.03

$$$$
>  <POLYMER SEQUENCE>
DLMERTQYMNEGELRVLADTYDSV [T5R]

>  <protein stability index>
2.56

$$$$
>  <POLYMER SEQUENCE>
DLMETTQYMNEGELLVLADTYDSV [R15L]

>  <protein stability index>
1.5

$$$$
>  <POLYMER SEQUENCE>
DLMEETQYMNEGELRVLADTYDSV [T5E]

>  <protein stability index>
2.54

$$$$
>  <POLYMER SEQUENCE>
DLMETTQYMNEGELRVIADTYDSV [L17I]

>  <protein stability index>
2.77

$$$$
>  <POLYMER SEQUENCE>
DLMETTQYENEGELRVLADTYDSV [M9E]

>  <protein stability index>
4.61

$$$$
>  <POLYMER SEQUENCE>
DDMETTQYMNEGELRVLADTYDSV [L2D]

>  <protein stability index>
5.2

$$$$
>  <POLYMER SEQUENCE>
DLMETTQYMNEGTLRVLADTYDSV [E13T]

>  <protein stability index>
3.84

$$$$
>  <POLYMER SEQUENCE>
DLMETTQYYNEGELRVLADTYDSV [M9Y]

>  <protein stability index>
4.31

$$$$
>  <POLYMER SEQUENCE>
DLMETTQYMNEGELRVLAKTYDSV [D19K]

>  <protein stability index>
2.52

$$$$
>  <POLYMER SEQUENCE>
DLMETTQYMNEGELRVLRDTYDSV [A18R]

>  <protein stability index>
2.12

$$$$
>  <POLYMER SEQUENCE>
WLMETTQYMNEGELRVLADTYDSV [D1W]

>  <protein stability index>
1.55

$$$$
>  <POLYMER SEQUENCE>
DLDETTQYMNEGELRVLADTYDSV [M3D]

>  <protein stability index>
4.6

$$$$
>  <POLYMER SEQUENCE>
DLMETTQYMNEGELTVLADTYDSV [R15T]

>  <protein stability index>
2.58

$$$$
>  <POLYMER SEQUENCE>
DLMETTQYMNEGELRVLLDTYDSV [A18L]

>  <protein stability index>
1.75

$$$$
>  <POLYMER SEQUENCE>
DRMETTQYMNEGELRVLADTYDSV [L2R]

>  <protein stability index>
4.52

$$$$
>  <POLYMER SEQUENCE>
DLMETTQYMNEGELRVLAYTYDSV [D19Y]

>  <protein stability index>
1.44

$$$$
>  <POLYMER SEQUENCE>
DLMETTQYMNEGELRVLASTYDSV [D19S]

>  <protein stability index>
2.12

$$$$
>  <POLYMER SEQUENCE>
DLMETTQYMNEAELRVLADTYDSV [G12A]

>  <protein stability index>
2.33

$$$$
>  <POLYMER SEQUENCE>
DLMKTTQYMNEGELRVLADTYDSV [E4K]

>  <protein stability index>
2.09

$$$$
>  <POLYMER SEQUENCE>
DLNETTQYMNEGELRVLADTYDSV [M3N]

>  <protein stability index>
4.55

$$$$
>  <POLYMER SEQUENCE>
FLMETTQYMNEGELRVLADTYDSV [D1F]

>  <protein stability index>
2.46

$$$$
>  <POLYMER SEQUENCE>
DLMETTQYMNEGELRVLADTYDST [V24T]

>  <protein stability index>
1.63

$$$$
>  <POLYMER SEQUENCE>
DLMETTQYMNEGELRVLADTWDSV [Y21W]

>  <protein stability index>
2

$$$$
>  <POLYMER SEQUENCE>
DWMETTQYMNEGELRVLADTYDSV [L2W]

>  <protein stability index>
3.31

$$$$
>  <POLYMER SEQUENCE>
DLMETTQYMPEGELRVLADTYDSV [N10P]

>  <protein stability index>
4.49

$$$$
>  <POLYMER SEQUENCE>
DLMETWQYMNEGELRVLADTYDSV [T6W]

>  <protein stability index>
1.73

$$$$
>  <POLYMER SEQUENCE>
DLMETTQYMNHGELRVLADTYDSV [E11H]

>  <protein stability index>
2.78

$$$$
>  <POLYMER SEQUENCE>
DLMETTQYMNEGEMRVLADTYDSV [L14M]

>  <protein stability index>
1.62

$$$$
>  <POLYMER SEQUENCE>
PLMETTQYMNEGELRVLADTYDSV [D1P]

>  <protein stability index>
4.29

$$$$
>  <POLYMER SEQUENCE>
DLMETTQYMNEGELRVGADTYDSV [L17G]

>  <protein stability index>
3.86

$$$$
>  <POLYMER SEQUENCE>
DLMETTQYMNEGELRVLNDTYDSV [A18N]

>  <protein stability index>
1.65

$$$$
>  <POLYMER SEQUENCE>
DLMETTQYSNEGELRVLADTYDSV [M9S]

>  <protein stability index>
4.68

$$$$
>  <POLYMER SEQUENCE>
DLFETTQYMNEGELRVLADTYDSV [M3F]

>  <protein stability index>
2.22

$$$$
>  <POLYMER SEQUENCE>
DLMETTQYMNEGELRVLADTYASV [D22A]

>  <protein stability index>
1.27

$$$$
>  <POLYMER SEQUENCE>
DLMETTQYMNEGELRVLADTCDSV [Y21C]

>  <protein stability index>
2.2

$$$$
>  <POLYMER SEQUENCE>
DLMETTQYMNEGELRVLADDYDSV [T20D]

>  <protein stability index>
2.83

$$$$
>  <POLYMER SEQUENCE>
ALMETTQYMNEGELRVLADTYDSV [D1A]

>  <protein stability index>
1.77

$$$$
>  <POLYMER SEQUENCE>
DLMETTQYMSEGELRVLADTYDSV [N10S]

>  <protein stability index>
1.74

$$$$
>  <POLYMER SEQUENCE>
DLMETTQYMNEGELRVPADTYDSV [L17P]

>  <protein stability index>
4.47

$$$$
>  <POLYMER SEQUENCE>
YLMETTQYMNEGELRVLADTYDSV [D1Y]

>  <protein stability index>
2.04

$$$$
>  <POLYMER SEQUENCE>
DLMVTTQYMNEGELRVLADTYDSV [E4V]

>  <protein stability index>
1.83

$$$$
>  <POLYMER SEQUENCE>
DLLETTQYMNEGELRVLADTYDSV [M3L]

>  <protein stability index>
1.91

$$$$
>  <POLYMER SEQUENCE>
DLMETTQAMNEGELRVLADTYDSV [Y8A]

>  <protein stability index>
3.88

$$$$
>  <POLYMER SEQUENCE>
DLMETTQYMNLGELRVLADTYDSV [E11L]

>  <protein stability index>
2.6

$$$$
>  <POLYMER SEQUENCE>
DLMETTQYMNEGELCVLADTYDSV [R15C]

>  <protein stability index>
1.5

$$$$
>  <POLYMER SEQUENCE>
DLMETTQYMNETELRVLADTYDSV [G12T]

>  <protein stability index>
3.49

$$$$
>  <POLYMER SEQUENCE>
DLMETTQYMQEGELRVLADTYDSV [N10Q]

>  <protein stability index>
2.07

$$$$

Taken from the supplement of paper PMC10567573.
